meta.source: ChEMBL document CHEMBL1687843

Test system: Klebsiella pneumoniae
Experiment: Antibacterial activity against carbapenem-resistant Klebsiella pneumoniae isolate 4 expressing beta-lactamase NDM-1 obtained from urine of patient by Etest
Format: functional
Settings: isolate 4, Urine

{"compound": "CN(C)c1cc(NC(=O)CNC(C)(C)C)c(O)c2c1C[C@H]1C[C@H]3[C@H](N(C)C)C(O)=C(C(N)=O)C(=O)[C@@]3(O)C(O)=C1C2=O", "MIC": "0.5 µg/mL"}
{"compound": "C[C@@H](O)[C@H]1C(=O)N2C(C(=O)O)=C(S[C@@H]3CN[C@H](CNS(N)(=O)=O)C3)[C@H](C)[C@H]12", "MIC": "> 32 µg/mL"}
{"compound": "C[C@@H](O)[C@H]1C(=O)N2C(C(=O)O)=C(S[C@@H]3CN[C@H](C(=O)N(C)C)C3)[C@H](C)[C@H]12", "MIC": "> 32 µg/mL"}
{"compound": "C[C@@H](O)[C@H]1C(=O)N2C(C(=O)O)=C(S[C@@H]3CN[C@H](C(=O)Nc4cccc(C(=O)O)c4)C3)[C@H](C)[C@H]12", "MIC": "> 32 µg/mL"}
{"compound": "CO[C@H]1/C=C/O[C@@]2(C)Oc3c(C)c(O)c4c(O)c(c(/C=N/N5CCN(C)CC5)c(O)c4c3C2=O)NC(=O)/C(C)=C\\C=C\\[C@H](C)[C@H](O)[C@@H](C)[C@@H](O)[C@@H](C)[C@H](OC(C)=O)[C@@H]1C", "MIC": "> 32 µg/mL"}
{"compound": "C[C@@H](O)[C@H]1C(=O)N2C(C(=O)O)=C(SCCNC=N)C[C@H]12 [IMIPENEM ANHYDROUS]", "MIC": "> 32 µg/mL"}

---

# maps each entry to its MIC
Test system: Klebsiella pneumoniae
Assay: Antibacterial activity against carbapenem-resistant Klebsiella pneumoniae isolate 5 expressing beta-lactamase NDM-1 obtained from urine of patient by Etest
Type: functional
Conditions: isolate 5, Urine
assay endpoint: MIC

{"molecule": "C[C@@H](O)[C@H]1C(=O)N2C(C(=O)O)=C(S[C@@H]3CN[C@H](CNS(N)(=O)=O)C3)[C@H](C)[C@H]12 [DORIPENEM]", "result": "> 32 µg/mL"}
{"molecule": "C[C@@H](O)[C@H]1C(=O)N2C(C(=O)O)=C(SCCNC=N)C[C@H]12 [IMIPENEM ANHYDROUS]", "result": "> 32 µg/mL"}
{"molecule": "CN(C)c1cc(NC(=O)CNC(C)(C)C)c(O)c2c1C[C@H]1C[C@H]3[C@H](N(C)C)C(O)=C(C(N)=O)C(=O)[C@@]3(O)C(O)=C1C2=O [TIGECYCLINE]", "result": "0.5 µg/mL"}
{"molecule": "C[C@@H](O)[C@H]1C(=O)N2C(C(=O)O)=C(S[C@@H]3CN[C@H](C(=O)Nc4cccc(C(=O)O)c4)C3)[C@H](C)[C@H]12 [ERTAPENEM]", "result": "> 32 µg/mL"}
{"molecule": "C[C@@H](O)[C@H]1C(=O)N2C(C(=O)O)=C(S[C@@H]3CN[C@H](C(=O)N(C)C)C3)[C@H](C)[C@H]12 [MEROPENEM]", "result": "> 32 µg/mL"}
{"molecule": "CO[C@H]1/C=C/O[C@@]2(C)Oc3c(C)c(O)c4c(O)c(c(/C=N/N5CCN(C)CC5)c(O)c4c3C2=O)NC(=O)/C(C)=C\\C=C\\[C@H](C)[C@H](O)[C@@H](C)[C@@H](O)[C@@H](C)[C@H](OC(C)=O)[C@@H]1C [RIFAMPIN]", "result": "> 32 µg/mL"}
